The reported measurements were obtained from patent US20210139605A1.

Molecular target: T1, human HER-2 protein (soluble / recombinant, used in SPR) (human, UniProt P04626 23-652)
T1 construct: also called immobilized HER2 protein; recombinant HER-2
Experiment: SPR, human HER2 immobilised, Fab flown, 1:1 Langmuir model
Parameter: kon. Scope: all listed entries.
A number alone suffices; assume M⁻¹ s⁻¹.

Record excerpt, results attached:
PFB4 Fab (Fab, V domains shown, Printed entries run through CL and CH1 (Fab chains); Label B4 tied to PFB4 by inference) VH: EVQLVQSGGGVVQPGRSLRLSCAASGFTFSSYGMHWVRQAPGKGLEWVAVISYDGSNKYYADSVKGRFTISRDDSKNTLYLQMNSLRAEDTAVYYCAKDRGYYGMDVWGQGTTVTVSS VL: QAVVIQEPSLTVSPGGTVTLTCGSTTGAVTSGHYPSWFQQKPGQAPRALIYSTSNKHSWTPARFSGSLLGGKAALTLSGVQPEDEAEYYCLLYYGGARVFGGGTKLTVLG = 4.41e+06
PFG3 Fab (Fab, V domains shown, Printed entries run through CL and CH1 (Fab chains); Label G3 tied to PFG3 by inference) VH: EVQLVQSGAEVKKPGTSVTVSCRASGFTFSDYYIHWVRQAPGQGLEWMGWVSAYNGDTNYAQKFQGRVTVTTDTSTSTAYMELRSLRSDDTAVYFCAREIASYSGSYYDYWGQGTLVTVSS VL: QAVVLQEPSFSVSPGGTVTLTCGLTSGAVSSSYYPSWYQQTPGQAPRTLIYNTDIRFSGVPDRFSGSILGNKAALTITGAQADDESDYYCVLYMGSGISVFGGGTKLTVLG = 108000
PFF5 Fab (Fab, V domains shown) VH: QVQLQESGPGLVKPSETLSLTCTVSGGSISSSSYYWGWIRQPPGKGLEWIGSIYYSGSTYYNPSLKSRVTISVDTSKNQFSLRLSSVSAADTAVYYCARYAPDSSGYLVAFDIWGQGTMVTVSS VL: QAVVIQEPSFSVSPGGTVTLTCGLSSGSVSTTYYPSWYQQTPGQAPRTLIYSTNTRSSGVPDRFSGSILGNKAALTITGAQADDESDYYCVLYMGNGISVFGGGTKLTVLG = 44500

Okay, next one:
Please report the recorded kon for PFE1 Fab (Fab, V domains shown, Printed entries run through CL and CH1 (Fab chains); Label E1 tied to PFE1 by inference) VH: EVQLVQSGGGVVQPGRSLRLSCAASGFTFSSYAMHWVRQAPGKGLEWVAVISYDGSNKYYADSVKGRFTISRDNSKNTLYLQMNSLRAEDTAVYYCARSRGYYGMDVWGQGTTVTVSS VL: DVVMTQSPLSLPVTLGQPASISCTSSQSLVYSDGNTYLNWFQQRPGQSPRRLIYKVSKRDSGVPDRFSGSGSGTDFTLKISRVEAEDVAIYYCMQGTHWPLTFGGGTKVEIKR .
1.59e+06
